biological target: Prostaglandin G/H synthase 2 (Homo sapiens, UniProt P35354); test: Inhibition of human recombinant COX2 using fluorometric substrate by fluorescent inhibitor screening assay
Sequence (P35354 whole entry): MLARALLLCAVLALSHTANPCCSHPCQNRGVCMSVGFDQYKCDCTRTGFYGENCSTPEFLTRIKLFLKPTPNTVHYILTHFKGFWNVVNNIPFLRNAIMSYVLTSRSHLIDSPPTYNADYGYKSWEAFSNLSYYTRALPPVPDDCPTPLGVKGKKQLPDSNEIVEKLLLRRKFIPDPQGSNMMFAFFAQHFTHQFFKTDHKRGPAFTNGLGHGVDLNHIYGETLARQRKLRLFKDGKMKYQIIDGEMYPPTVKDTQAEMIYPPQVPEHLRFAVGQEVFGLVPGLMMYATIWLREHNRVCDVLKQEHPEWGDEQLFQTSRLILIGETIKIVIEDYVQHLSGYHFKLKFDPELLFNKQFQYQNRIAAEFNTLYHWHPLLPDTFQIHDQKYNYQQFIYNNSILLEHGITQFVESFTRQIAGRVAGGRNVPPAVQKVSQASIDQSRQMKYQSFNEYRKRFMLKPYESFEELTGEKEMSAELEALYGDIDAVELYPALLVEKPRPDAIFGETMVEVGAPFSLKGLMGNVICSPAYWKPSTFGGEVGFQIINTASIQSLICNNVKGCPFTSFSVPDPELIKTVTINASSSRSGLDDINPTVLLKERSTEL
Reported pIC50 values for a set of molecules
pIC50 is defined as minus the log10 of a concentration measured in mol/L.

[
  {
    "molecule": "CS(=O)(=O)c1ccc(N2CCN=C2c2ccc(Cl)c(Cl)c2)cc1",
    "measurement-label": "pIC50",
    "recorded-measurement": 5.68
  },
  {
    "molecule": "NS(=O)(=O)c1ccc(N2CCN=C2c2cccc(F)c2)cc1",
    "measurement-label": "pIC50",
    "recorded-measurement": 5.14
  },
  {
    "molecule": "NS(=O)(=O)c1ccc(N2CCN=C2c2ccc(F)cc2)cc1",
    "measurement-label": "pIC50",
    "recorded-measurement": 5.16
  },
  {
    "molecule": "NS(=O)(=O)c1ccc(N2CCN=C2c2ccc(Cl)cc2)cc1",
    "measurement-label": "pIC50",
    "recorded-measurement": 5.47
  },
  {
    "molecule": "NS(=O)(=O)c1ccc(N2CCN=C2c2cccc(Br)c2)cc1",
    "measurement-label": "pIC50",
    "recorded-measurement": 5.54
  }
]

Fill in the blank: the reported pIC50 of CS(=O)(=O)c1ccc(N2CCN=C2c2cccc(Br)c2)cc1 is ____.
5.17

Fill in the blank: the reported pIC50 of CS(=O)(=O)c1ccc(N2CCN=C2c2cccc(Cl)c2)cc1 is ____.
5.09

Fill in the blank: the reported pIC50 of CS(=O)(=O)c1ccc(N2CCN=C2c2ccc(Cl)c(C(F)(F)F)c2)cc1 is ____.
5.44

Fill in the blank: the reported pIC50 of NS(=O)(=O)c1ccc(N2CCN=C2c2ccc(Cl)c(Cl)c2)cc1 is ____.
6.52

// data source = ChEMBL document CHEMBL3352168
